The origin of these recorded values is patent US7626043B2.

- Tested on: NCI-ADR-RES (Formerly MCF-7/ADR) human cancer
- assay: MTT antiproliferative/cytotoxicity assay, NCI-ADR-RES
- Assay type: cell-based
- run.parameters: 72-h exposure, read-out: NCIADR-RES IC50
pIC50: −log10 of the molar value.
measured.metric: pIC50

molecule	meas.value
CCC1OC(=O)CC(O)(C/C=C/C=C(\C)C2OC(=O)CC/C=C(\C)C(C)C(O)C(C)C(OC(N)=O)/C=C\C=C/C2C)C1C (stereo not shown) [Leiodermatolide]	6.63
